system: RWP1 cells; test: Effect of anti-FZD5 Fabs on proliferation of pancreatic cancer cell lines (percent growth inhibition); type: cell-based, human; details: Fab 10 μg/ml
Given measured percent growth inhibition, RWP1 10 μg/ml, output criterion met if it is greater than or equal to 40% and criterion not met if not.

State whether the measured percent growth inhibition, RWP1 10 μg/ml reaches 40%, counting equality as reaching it, for Fab-2912: anti-FZD5 Fab with antibody variable region Fv-2912; CDR SEQ ID NOs: 35, 36, 51, 90, 127, 164 (antibody, V domains shown) VH: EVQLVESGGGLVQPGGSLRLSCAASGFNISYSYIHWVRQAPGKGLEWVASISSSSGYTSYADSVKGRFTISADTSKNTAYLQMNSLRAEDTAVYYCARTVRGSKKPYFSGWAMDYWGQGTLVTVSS VL: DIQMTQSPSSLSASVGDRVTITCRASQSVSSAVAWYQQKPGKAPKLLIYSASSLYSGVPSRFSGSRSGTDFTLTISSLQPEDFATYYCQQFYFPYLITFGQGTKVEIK
criterion not met

Is reported percent growth inhibition, RWP1 10 μg/ml greater than or equal to 40% here: Fab-2910: anti-FZD5 Fab with antibody variable region Fv-2910; CDR SEQ ID NOs: 35, 36, 49, 88, 125, 162 (antibody, V domains shown) VH: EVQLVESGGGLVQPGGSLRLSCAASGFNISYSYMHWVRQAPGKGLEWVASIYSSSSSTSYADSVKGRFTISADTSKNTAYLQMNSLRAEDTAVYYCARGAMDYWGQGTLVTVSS VL: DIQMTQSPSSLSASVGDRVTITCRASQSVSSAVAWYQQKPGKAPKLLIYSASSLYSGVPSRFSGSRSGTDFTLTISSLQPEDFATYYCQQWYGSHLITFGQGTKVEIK
criterion met

Hello, I need to know if Fab-2935: anti-FZD5 Fab with antibody variable region Fv-2935; CDR SEQ ID NOs: 35, 36, 74, 111, 150, 178 (antibody, V domains shown) VH: EVQLVESGGGLVQPGGSLRLSCAASGFNIYYYYIHWVRQAPGKGLEWVASIYPSSGSTSYADSVKGRFTISADTSKNTAYLQMNSLRAEDTAVYYCARAAFDYWGQGTLVTVSS VL: DIQMTQSPSSLSASVGDRVTITCRASQSVSSAVAWYQQKPGKAPKLLIYSASSLYSGVPSRFSGSRSGTDFTLTISSLQPEDFATYYCQQWYGGYALITFGQGTKVEIK has measured percent growth inhibition, RWP1 10 μg/ml not below 40%. Thanks!
criterion not met

Test whether the molecule Fab-2936: anti-FZD5 Fab with antibody variable region Fv-2936; CDR SEQ ID NOs: 35, 36, 75, 112, 151, 179 (antibody, V domains shown) VH: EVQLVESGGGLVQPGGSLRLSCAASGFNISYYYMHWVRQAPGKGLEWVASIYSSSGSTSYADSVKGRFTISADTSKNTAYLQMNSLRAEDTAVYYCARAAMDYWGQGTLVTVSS VL: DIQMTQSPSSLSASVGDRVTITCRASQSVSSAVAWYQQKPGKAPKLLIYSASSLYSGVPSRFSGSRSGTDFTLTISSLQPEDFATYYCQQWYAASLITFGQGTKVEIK records percent growth inhibition, RWP1 10 μg/ml of 40% or higher.
criterion not met

For this molecule, is measured percent growth inhibition, RWP1 10 μg/ml 40% or higher? Fab-2915: anti-FZD5 Fab with antibody variable region Fv-2915; CDR SEQ ID NOs: 35, 36, 54, 93, 130, 166 (antibody, V domains shown) VH: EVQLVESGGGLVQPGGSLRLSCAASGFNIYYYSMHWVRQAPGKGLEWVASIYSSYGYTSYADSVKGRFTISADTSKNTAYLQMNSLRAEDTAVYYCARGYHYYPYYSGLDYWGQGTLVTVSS VL: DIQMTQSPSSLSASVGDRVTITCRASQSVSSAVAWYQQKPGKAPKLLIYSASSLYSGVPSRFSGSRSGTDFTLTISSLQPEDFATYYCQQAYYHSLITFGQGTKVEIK
criterion met
